Test system: Tyrosine-protein kinase ABL1 (Homo sapiens), P00519 [H396P]
CONDITION: at 1 µM
Each entry below lists one item and its recorded inhibition value.

{"INPUT_SMILES": "COc1cc2c(cc1Nc1nc(Nc3ccsc3C(N)=O)c3cc[nH]c3n1)N(C(=O)CN(C)C)CCC2(C)C", "inhibition, %": 2.9}
{"INPUT_SMILES": "CCNC(=O)O[C@H]1CN[C@H](C#Cc2cc3ncnc(Nc4ccc(OCc5cccc(F)c5)c(Cl)c4)c3s2)C1", "inhibition, %": 2.6}
{"INPUT_SMILES": "COc1ccc2c(-c3ccnc(Nc4cccc(OC(F)(F)F)c4)n3)cnn2n1", "inhibition, %": 15.7}
{"INPUT_SMILES": "CCn1cc(-c2ccnc3[nH]ccc23)c(-c2cccc(NC(=O)Nc3ccc(OCc4ccccc4)cc3)c2)n1", "inhibition, %": 3.55}
{"INPUT_SMILES": "COc1cccc(-n2ncc3c(N/N=C/c4ccc(F)cc4)ncnc32)c1", "inhibition, %": 84.5}
{"INPUT_SMILES": "CCN(CC)S(=O)(=O)c1ccc(OC)c(Nc2ncc(-c3ccccc3)o2)c1", "inhibition, %": 32.8}
{"INPUT_SMILES": "Nc1ncc(-c2cccc(S(N)(=O)=O)c2)c2scc(-c3ccc(F)c(Cl)c3)c12", "inhibition, %": 93.5}
{"INPUT_SMILES": "NS(=O)(=O)c1ccc(Nc2ncc(-c3ccccc3)o2)cc1", "inhibition, %": 39.3}
{"INPUT_SMILES": "CC(C)COC(=O)c1ccc2c(c1)/C(=C/Nc1ccc(S(N)(=O)=O)cc1)C(=O)N2", "inhibition, %": 26.6}
{"INPUT_SMILES": "COc1cc(Nc2nccc(Nc3ccc4c(C)n[nH]c4c3)n2)cc(OC)c1OC", "inhibition, %": 78.3}
{"INPUT_SMILES": "Fc1ccc(-c2nn3ncccc3c2-c2ccnc(Nc3ccc4c(c3)OCCO4)n2)cc1", "inhibition, %": 69.9}
{"INPUT_SMILES": "COC(=O)Nc1nc2ccc(S(=O)(=O)c3ccc(NC(=O)Nc4cc(C(F)(F)F)ccc4F)cc3)cc2[nH]1", "inhibition, %": -0.47}
